# assay.system: T1, Mouse IL-11 (mouse, UniProt P47873 22-199, limits assumed)
# T1 construct: also called murine IL-11; recombinant murine IL-11
# T1 sequence (looked up): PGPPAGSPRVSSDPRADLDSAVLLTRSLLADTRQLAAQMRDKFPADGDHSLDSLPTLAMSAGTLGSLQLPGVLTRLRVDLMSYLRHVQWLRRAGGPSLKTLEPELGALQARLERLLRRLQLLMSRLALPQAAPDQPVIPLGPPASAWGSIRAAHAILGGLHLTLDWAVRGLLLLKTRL
# protocol.description: ELISA
Exercise: for every item that follows, state its recorded mIL11 - average signal.
Output: the number by itself.

Prompt: Which mIL11 - average signal is listed for YU100-B06 (antibody) QVQLVESGGGVVQPGRSLRLSCAASGFTFSSYGMHWVRQAPGKGLEWVAVISYDGSNKYYADSVKSRFTISRDNSKNTLYLQMNSLRAEDTAVYYCAKIGATDPLDYWGQGTLVTVSSGSASAPKLEEGEFSEARVQSALTQPASVSGSPGQSITISCTGTSSDVGGYNYVSWYQQHPGKAPKLMIYDVSKRPSGVPDRFSGSKSGNTASLTISGLQAEDEADYYCNSYAGSYTWVFGGGTKLTVL ?
Completion: 0.404

Prompt: Which mIL11 - average signal is listed for YU100-G09 (antibody) EVQLVESGGGVVQPGRSLRLSCAASGFTFSSYGMHWVRQAPGKGLEWVAVISYDGSNKYYADSVKGRFTISRDNSKNTLYLQMNSLRAEDTAVYYCAKIGATDPLDYWGQGTLVTVSSGSASAPKLEEGEFSEARVQSALTQPRSVSGSPGQSVTISCTGTISDVGGYNYVSWYQQHPGKAPKLMIYDVTKRPSGVPDRFSGSKSGNTASLTISGLQAEDEAGYYCSSYAGSYTWVFGGGTKLTVL ?
Completion: 0.985

Prompt: Which mIL11 - average signal is listed for YU100-H01 (antibody, human IgG1, V domains shown, Light chain shuffled human antibody; Only the variable domains are tied to the clone) VH: QVQLVQSGGGVVQPGRSLRLSCAASGFTFSSYAMHWVRQAPGKGLEWVAVISYDGSNKYYADSVKGRFTISRDNSKNTLYLQMNSLRAEDTAVYYCARIMGYDYGDYDVVDYWGQGTLVTVSS VL: QSALTQPRSVSGSPGQSVTISCTGTSSDVGAYNYVSWYQQHPGKAPKLMIYDVSERPSGVPDRFSGSKSGNTASLTISGLQAEDEADYYCCSYAGSYTWVFGGGTKLTVLG ?
Completion: 0.283

Prompt: Which mIL11 - average signal is listed for YU100-B01 (antibody) QVQLVQSGGGVVQPGRSLRLSCAASGFTFSSYGMHWVRQAPGKGLEWVAVISYDGSNKYYADSVKGRFTISRDNSKNTLYLQMNSLRAEDTAVYYCAKIGATDPLDYWGQGTLVTVSSGSASAPKLEEGEFSEARVQSALTQPRSVSGSPGQSVTISCTGTNTDVGAYNYVSWYQQYPGKAPKLIIYDVSKRPSGVPDRFSGSKSGNTASLTISGLQAEDEADYYCCSYAGSYSWVFGGGTKLTVL ?
Completion: 0.175
